All figures here come from a melting point compilation (Tetko et al.; mined from patent text by program, amines drawn as free bases though some values may be those of a salt).

Reported Property: melting point

Recorded results for 8 compounds are shown here.
Compound	melting point
CCc1nn(-c2c(Cl)cc(Cl)cc2Cl)c(N)c1C(N)=O	186 to 188 °C
Cc1ncc2c(c1C#N)COc1ccccc1C2=O	124 to 126 °C
O=C(O)c1cn(C2COC2)c2cc(F)c(F)c(O)c2c1=O	273 to 276 °C
O=C(O)c1ccc(-c2ccc3ncnc(Nc4ccc(OCc5cccc(F)c5)c(Cl)c4)c3c2)s1	312 to 314 °C
Cc1ccc2c(C(=O)C(F)(F)F)c[nH]c2c1	216 to 218 °C
C=CCC1CC(NC(=O)C(F)(F)F)C(OC(=O)c2ccc([N+](=O)[O-])cc2)C(C)O1 (centres undefined)	138 to 139 °C
COc1cc(F)ccc1C(=O)Nc1cc(-c2c(-c3ccc(F)c(C)c3)nc3cccnn23)ccn1	251 to 252 °C
CC(C)(C)NC(=O)[C@@H]1Cc2ccccc2CN1C(=O)OCc1ccccc1	105 to 106 °C

For record COc1ccc(C2CCN(C(=O)C(=O)NO)CC2)cc1C=C1CCCC1 the listed melting point is 127 to 128 °C

For record O=C(NNS(=O)(=O)c1ccccc1)c1cc2cccc(Cl)c2o1 the listed melting point is 179 to 180 °C

For record COc1cc2c(cc1OC)[C@@H]1C[C@H](NC(=O)OC(C)(C)C)[C@@H](N3C[C@H](CF)CC3=O)CN1CC2 the listed melting point is > 300 °C

For record CC(=O)N1CCc2cc(C(=O)CN(Cc3ccccc3)Cc3ccccc3)ccc21 the listed melting point is 130 °C

For record CC(=O)n1nc(-c2c(C)cc(C)c(N)c2C)n2nc(C(C)(C)C)cc12 the listed melting point is 206 to 207 °C

For record CS(=O)(=O)C(=[N+]=[N-])S(C)(=O)=O the listed melting point is 120 to 124 °C

For record O=C(c1ccc(Br)cc1)c1ccc([N+](=O)[O-])cc1 the listed melting point is 123 to 124 °C

For record O=C1CN(C(=O)Cl)C(c2ccccc2)c2cc(Cl)ccc2N1 (centres undefined) the listed melting point is 181 to 184 °C

For record COCOc1cc(F)ccc1-c1cc(-c2cccc(Br)c2)c(C#N)c(N)n1 the listed melting point is 165 to 166 °C

For record Cn1nnnc1SCC(=O)NC/C=C\COc1cc(CN2CCCCC2)ccn1 the listed melting point is 58 to 62 °C

For record O=C(O)CN(CCN(CC(=O)O)CC(=O)O)CCN(CC(=O)O)CC(=O)Nc1ccccc1 the listed melting point is 125 °C

For record CN(C)CCCOc1ccc(-c2nnc(CSCCOc3ccccc3)o2)cn1 the listed melting point is 69 to 70 °C

For record CN(c1ncc(Br)cn1)[C@H]1CC[C@H](C#CCO)CC1 the listed melting point is 156 to 157 °C

For record COC1=CC(=O)[C@H](C(=O)O[C@@H]2C[C@H](C)CC[C@H]2C(C)C)[C@@H](C)C1 the listed melting point is 78 to 80 °C

For record CC1(CN=[N+]=[N-])SC2C(NC(=O)Cc3ccccc3)C(=O)N2C1C(=O)OCC(Cl)(Cl)Cl (centres undefined) the listed melting point is 105 to 106 °C

For record O=C(OCC1=CCN(Cc2c[nH]c3cccnc23)CC1)c1ccccc1 the listed melting point is 126 °C

For record O=C(OC(c1ccccc1)c1ccccc1)C(OC(=S)n1ccnc1)c1ccccc1 (centres undefined) the listed melting point is 109 to 110 °C

For record COC(=O)c1ccc2c(CBr)csc2c1 the listed melting point is 108 to 110 °C
